The values you see were collected from ChEMBL document CHEMBL1201861.

Test system: JVM-2;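 note: growth inhibition of JVM-2 cells determined by a cell viability assay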
Test: cells
Assay type: functional, cell-based, Homo sapiens
Conditions: Homo sapiens, JVM-2
Description: SANGER: Inhibition of human JVM-2 cell growth in a cell viability assay.
ASSAY READOUT: IC50 (nM)
All answers are understood in nM, so give the number only.

Which IC50 is listed for CC(C)C[C@H](NC(=O)[C@H](Cc1ccccc1)NC(=O)c1cnccn1)B(O)O ?
7.28

Let us now turn to CC1=C(/C=C/C(C)=C/C=C/C(C)=C/C(=O)O)C(C)(C)CCC1
1170

* * *

System: HCC1187;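 note: growth inhibition of HCC1187 cells, read out with a cell viability assay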
Assay: cells
Type: functional, cell-based, Homo sapiens
Details: hcc1187
Description: SANGER: Inhibition of human HCC1187 cell growth in a cell viability assay.
pIC50: −log10 of the molar value. Where a SMILES comes first, the peptide text is derived from it. The star is where a group is joined. Cbz = O=C(OCc1ccccc1)*
ASSAY READOUT: pIC50

Which pIC50 is listed for CC(C)C[C@@H](C=O)NC(=O)[C@H](CC(C)C)NC(=O)[C@H](CC(C)C)NC(=O)OCc1ccccc1 [MG-132] (Cbz-Leu-Leu-Leu-aldehyde) ?
< 6.00
